B1: BBSome complex member BBS1 (Homo sapiens), Q8NFJ9 (parent)
chain: MAAASSSDSDACGAESNEANSKWLDAHYDPMANIHTFSACLALADLHGDGEYKLVVGDLGPGGQQPRLKVLKGPLVMTESPLPALPAAAATFLMEQHEPRTPALALASGPCVYVYKNLRPYFKFSLPQLPPNPLEQDLWNQAKEDRIDPLTLKEMLESIRETAEEPLSIQSLRFLQLELSEMEAFVNQHKSNSIKRQTVITTMTTLKKNLADEDAVSCLVLGTENKELLVLDPEAFTILAKMSLPSVPVFLEVSGQFDVEFRLAAACRNGNIYILRRDSKHPKYCIELSAQPVGLIRVHKVLVVGSTQDSLHGFTHKGKKLWTVQMPAAILTMNLLEQHSRGLQAVMAGLANGEVRIYRDKALLNVIHTPDAVTSLCFGRYGREDNTLIMTTRGGGLIIKILKRTAVFVEGGSEVGPPPAQAMKLNVPRKTRLYVDQTLREREAGTAMHRAFQTDLYLLRLRAARAYLQALESSLSPLSTTAREPLKLHAVVQGLGPTFKLTLHLQNTSTTRPVLGLLVCFLYNEALYSLPRAFFKVPLLVPGLNYPLETFVESLSNKGISDIIKVLVLREGQSAPLLSAHVNMPGSEGLAAA
partner: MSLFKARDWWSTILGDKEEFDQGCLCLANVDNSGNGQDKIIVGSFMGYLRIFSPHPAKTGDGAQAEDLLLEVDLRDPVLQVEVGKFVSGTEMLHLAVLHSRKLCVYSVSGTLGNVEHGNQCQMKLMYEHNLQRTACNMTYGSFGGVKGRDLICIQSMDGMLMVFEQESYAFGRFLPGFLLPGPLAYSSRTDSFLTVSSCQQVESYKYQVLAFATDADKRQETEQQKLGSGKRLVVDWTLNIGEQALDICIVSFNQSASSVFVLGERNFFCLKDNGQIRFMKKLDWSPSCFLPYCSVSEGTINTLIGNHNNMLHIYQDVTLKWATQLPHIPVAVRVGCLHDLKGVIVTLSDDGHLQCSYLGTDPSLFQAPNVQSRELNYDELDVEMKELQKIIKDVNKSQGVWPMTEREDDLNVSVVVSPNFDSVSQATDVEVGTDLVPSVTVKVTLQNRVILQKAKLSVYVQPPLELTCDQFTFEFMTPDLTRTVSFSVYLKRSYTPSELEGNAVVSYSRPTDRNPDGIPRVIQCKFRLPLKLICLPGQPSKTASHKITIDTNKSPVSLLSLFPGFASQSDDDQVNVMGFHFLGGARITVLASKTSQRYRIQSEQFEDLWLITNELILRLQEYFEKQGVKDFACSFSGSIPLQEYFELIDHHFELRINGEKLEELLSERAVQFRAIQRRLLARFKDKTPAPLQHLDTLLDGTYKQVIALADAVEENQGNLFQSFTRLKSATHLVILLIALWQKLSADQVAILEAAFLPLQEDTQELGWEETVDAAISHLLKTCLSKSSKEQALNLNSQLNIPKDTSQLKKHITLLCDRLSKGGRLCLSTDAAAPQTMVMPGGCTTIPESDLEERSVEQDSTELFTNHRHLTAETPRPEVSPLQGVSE

- Variants of: B1
- assaySetup: with pthb1_human BBS9, Q3SYG4
parameterMeasured: effect of a mutation on the interaction

These solved cases illustrate the format of a correct answer.
| mutationKey | effect of a mutation on the interaction |
| --- | --- |
| A591K | with no effect |
| S574K | with no effect |
| H504A | with no effect |
| L555E | with no effect |
| P542E | with no effect |
| K558E | with no effect |
| K565A | with no effect |
| R429E | with no effect |
| P418K | with no effect |
| L459E | with no effect |

Could you now look at the following variant, please?
Tell us which effect of a mutation on the interaction value is on record for S476K
with no effect
